Recorded values, source the supplement of paper PMC9170038.

Entries and their measured apparent KD of K4 kissing-loop reporter follow.
test system: K4 kissing-loop RNA reporter; test: apparent KD of K4 kissing-loop reporter; higher = weaker reporter binding; conditions: Eterna round: R107; input ligand: none;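 also: bound reporter read as fluorescence of individual clusters on recovered sequencing chips by microscopy, with normalized cluster intensities fitted with a binding model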

sequence_entry	apparent KD of K4 kissing-loop reporter (nM)
AAAAUAAUCCAGUGAUGUUGGUAUCCAGAUACCAGCCACGAAAGUGGCCCUUGGCAGCUGUAGGACGUACAAAUAAGUACGUCCA [#OpenEnded 7 #StaticStem #K4Early]	345
GGCCGGUUGAAAGGCCGGCCAGAAACCGAAGGAGCGCGAAGAAACGCAGGUAGGUCGCGGAAAACAUGACCAGUGAUGUUGGUCG	154
CUGGUUCAGUGAUGUUGGAAGGUUUAGGUGAAGGAUAUAUUGCAUAAUAGAAGGUCACGGCCAUGCAAUUAUUAACGUAGCCUGU [theeternabot_exclusion_KL_FMN_A_3]	172
AGGUCAGCAGGAAGGAGCGCCCUGACAGGUUGCUGCCGUGGGCAGUGAUGUUGCUCAGUCCGGCAGGUAGGUCGCCUGCUGACCU	153
ACGAUUUACAGAAGGAGCGUGUAUUUAACUACAAUUAUCUUAGCGAGUGAUGUUCGUUUUACACAGGUAGGUCGCUGUAUAUCGA [JR_ExcArginiB_Sub011]	263
GACAUCUAUCGCCGAUAGUGUUUAUCUUGGGAGGAUAUGUCAGCGGACAGAAGGCCCAGUGAUGUUGGGUAGAUGACCGUUGCUU [Edbiza]	135
AAAUUCUUUUUUUUAUUUAACUUUUCAGAAGGAGCGUGGUAGUACACAGGUAGGUCGCUGAAUUUUGGACUAGUGAUGUUAGUUA [JR_SSArginiA_Sub007]	158
CGGAUGUAGUGAUGUUAUAUUAGAUGUAGACGAGGACCGGUACGGCCGCCACUCGAAACGGCUGCUAGCGCGUUGCGAGGUGUGC [ExTryptoA.Ck]	1120
ACUUAGAAUGAAGGAUAUUGGUUACGAGGGCUAACCAAAACGGAUCACUUGUCCAGUGAUGUUGUCCAAGAAGGUCACGUUAAAC [theeternabot_exclusion_KL_FMN_B_44]	868
UCUGGAGCGUAUGAUACCAGCAGAGAGAGACAGGAAGUAUAGUGAUGUUAUAUGAGAGAAUGCCCUUGGCAGCGUGUGCAGUGGC [#26 K4 Theophylline B Same State]	66.8
AAGCAGUCUCUUGUAGUCAUCGAAGAUGAACGAGGACCGGUACGGCCGCCACUCGGAGUGAUGUUCCGAAGACUGCAAAAUAAAA [MatMod 17 - Jieux - Exclusion - Tryptophan A]	1010
AACUCUCAGACACCUGAGUGAUGUUCAGGCCGAGGACCGGUACGGCCGCCACUCGGGUCUGAGAGAGGUUAUCAAAGAUAGCCAA [Omei KL Tryp A SS A v3]	336
